Each recorded value in this set is attributed to patent US10925874B2.

Recorded AC50 for the following compounds
Molecular target: N370S glucocerebrosidase from human spleen homogenate (Homo sapiens, UniProt P04062, N409S)
Construct: N370S glucocerebrosidase from human spleen homogenate as the enzyme preparation; from tissue; host or cells: human spleen homogenate
Sequence (P04062 40-536 N409S): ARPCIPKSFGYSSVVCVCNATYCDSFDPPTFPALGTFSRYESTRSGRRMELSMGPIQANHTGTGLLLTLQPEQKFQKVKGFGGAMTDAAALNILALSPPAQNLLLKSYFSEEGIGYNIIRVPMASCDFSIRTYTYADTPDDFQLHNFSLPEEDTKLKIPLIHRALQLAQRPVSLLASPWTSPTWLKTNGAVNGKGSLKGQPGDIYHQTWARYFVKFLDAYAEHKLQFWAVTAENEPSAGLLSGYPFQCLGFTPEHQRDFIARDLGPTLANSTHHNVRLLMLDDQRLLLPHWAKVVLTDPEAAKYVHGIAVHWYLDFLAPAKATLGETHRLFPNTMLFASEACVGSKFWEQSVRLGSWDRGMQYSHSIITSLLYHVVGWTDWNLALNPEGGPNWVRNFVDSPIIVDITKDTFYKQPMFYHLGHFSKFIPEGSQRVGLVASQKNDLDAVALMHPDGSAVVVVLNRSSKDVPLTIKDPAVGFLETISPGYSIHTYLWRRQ
Test: qHTS fluorogenic enzyme assay for activators of N370S glucocerebrosidase (4-methylumbelliferyl-beta-D-glucopyranoside substrate)
Format: biochemical
Conditions: pH 5.0, 37° C. 40 min
Give the value in µM but do not write µM after it.

C=C1C=C(C(F)F)n2ncc(C(=O)Nc3ccccc3OCC)c2N1 [NCGC00182160-01]	2.51
C=C1C=C(C(F)F)n2ncc(C(=O)Nc3ccc(C(C)CC)cc3)c2N1 (centres unmarked) [NCGC00182141-01]	2.51
Cc1cc(C)n2ncc(C(=O)Nc3ccccc3C)c2n1 [NCGC00188770-01]	16.3
Cc1cc(C)n2ncc(C(=O)Nc3ccc4c(c3)CCC4)c2n1 [NCGC00187969-01]	2.59
Cc1cccc(NC(=O)c2cnn3c2NC(=C2CC2)C=C3C(F)F)n1 [NCGC00182139-01]	12.6

AC50 for C=C1C=C(C)n2ncc(C(=O)Nc3ccc(C)cn3)c2N1 [NCGC00182198-01] is 15.8

AC50 for Cc1cc(-c2ccccc2)nc2c(C(=O)Nc3ccc4c(c3)CCC4)cnn12 [NCGC00229719-01] is 8.19

AC50 for Cc1cc(C)n2ncc(C(=O)NCc3ccccc3)c2n1 [NCGC00187976-01] is 51.7

AC50 for COc1ccc(NC(=O)c2cnn3c(C)cc(C)nc23)cc1Cl [NCGC00188780-01] is 2.06

AC50 for CC(=O)c1cccc(NC(=O)c2cnn3c(C)cc(C)nc23)c1 [NCGC00188785-01] is 32.6

AC50 for O=C(Nc1ccccc1Br)c1cnn2c1NC(=C1CC1)C=C2C(F)F [NCGC00182188-01] is 12.6

AC50 for O=C(Nc1ccccc1Sc1ccccc1)c1cnn2c1NC(=C1CC1)C=C2C(F)(F)F [NCGC00182190-01] is 14.1

AC50 for COC(=O)c1ccccc1NC(=O)c1cnn2c1NC(=C1CC1)C=C2C(F)F [NCGC00182132-01] is 15.8

AC50 for COc1ccc(NC(=O)c2cnn3c(C)cc(C)nc23)c(C)c1 [NCGC00188774-01] is 51.7
